# EXPERIMENTAL TARGET: Bromodomain-containing protein 2 (Homo sapiens)
# ASSAY NOTES: FP Competitive Binding Assay (No.350): Fluorescence Polarization (FP) competitive binding studies (see above) were carried out using the FAM labeled fluorescent probe Cpd. No. 350 to determine binding affinities of representative compounds to both BD1 and BD2 of BRD2, BRD3, and BRD4 proteins. Equilibrium dissociation constants (Id) values of Cpd. […] Final Cpd. […] Kd values of Cpd.
pKi: −log10 of the molar value.

MOLECULE	pKi
COc1cc2c(cc1-c1c(C)noc1C)[nH]c1nc(C)nc(-c3ccc(NC(=O)N4CCN(C)CC4)c4ccccc34)c12	8.34
COc1cc2c(cc1-c1c(C)noc1C)[nH]c1nc(C)nc(-c3cc(C(=O)NC4CCN(C)CC4)cc(C(C)(C)C)c3)c12	8.66
COc1cc2c(cc1-c1c(C)noc1C)[nH]c1nc(C)nc(-c3ccc(NC(=O)N4CCN(C5COC5)CC4)c4ccccc34)c12	7.77

###

# EXPERIMENTAL TARGET: Bromodomain-containing protein 2 (Homo sapiens, UniProt P25440)
# Sequence (P25440 whole entry): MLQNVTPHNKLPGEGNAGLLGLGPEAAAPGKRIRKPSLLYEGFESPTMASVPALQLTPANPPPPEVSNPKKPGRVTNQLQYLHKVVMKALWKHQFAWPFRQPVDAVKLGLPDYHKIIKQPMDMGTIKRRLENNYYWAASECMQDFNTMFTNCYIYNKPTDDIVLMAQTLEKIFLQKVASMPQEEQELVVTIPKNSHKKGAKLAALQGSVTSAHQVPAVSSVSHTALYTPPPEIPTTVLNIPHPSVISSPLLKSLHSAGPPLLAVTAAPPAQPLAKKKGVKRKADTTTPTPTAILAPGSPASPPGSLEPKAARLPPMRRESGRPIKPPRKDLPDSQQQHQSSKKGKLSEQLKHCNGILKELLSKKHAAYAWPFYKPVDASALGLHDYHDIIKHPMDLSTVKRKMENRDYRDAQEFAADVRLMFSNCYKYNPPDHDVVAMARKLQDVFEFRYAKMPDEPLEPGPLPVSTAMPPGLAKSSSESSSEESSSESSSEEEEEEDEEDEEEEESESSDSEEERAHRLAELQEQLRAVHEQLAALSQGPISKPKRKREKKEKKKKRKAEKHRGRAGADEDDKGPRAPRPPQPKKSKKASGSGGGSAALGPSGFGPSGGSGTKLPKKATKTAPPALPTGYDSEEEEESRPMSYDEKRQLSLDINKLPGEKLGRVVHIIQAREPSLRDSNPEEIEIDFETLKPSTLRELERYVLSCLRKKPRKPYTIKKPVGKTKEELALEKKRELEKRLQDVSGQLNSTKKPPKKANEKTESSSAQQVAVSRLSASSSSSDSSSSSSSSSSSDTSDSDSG
# ASSAY NOTES: FP Competitive Binding Assay (No.350): Fluorescence Polarization (FP) competitive binding studies (see above) were carried out using the FAM labeled fluorescent probe Cpd. No. 350 to determine binding affinities of representative compounds to both BD1 and BD2 of BRD2, BRD3, and BRD4 proteins. Equilibrium dissociation constants (Id) values of Cpd. […] Final Cpd. […] Kd values of Cpd.
PROPERTY: Ki (nM)

MOLECULE	UNIT SYMBOL	RECORDED NUMBER
COc1cc2c(cc1-c1c(C)noc1C)[nH]c1nc(C)nc(-c3cc(C(=O)NC4CCN(C)CC4)cc(C(C)(C)C)c3)c12	nM	5.2
COc1cc2c(cc1-c1c(C)noc1C)[nH]c1nc(C)nc(-c3ccc(NC(=O)N4CCN(C5COC5)CC4)c4ccccc34)c12	nM	7.8
COc1cc2c(cc1-c1c(C)noc1C)[nH]c1nc(C)nc(-c3ccc(NC(=O)N4CCN(C)CC4)c4ccccc34)c12	nM	2.6
